Target: Interstitial collagenase (Homo sapiens)
Sequence (whole entry): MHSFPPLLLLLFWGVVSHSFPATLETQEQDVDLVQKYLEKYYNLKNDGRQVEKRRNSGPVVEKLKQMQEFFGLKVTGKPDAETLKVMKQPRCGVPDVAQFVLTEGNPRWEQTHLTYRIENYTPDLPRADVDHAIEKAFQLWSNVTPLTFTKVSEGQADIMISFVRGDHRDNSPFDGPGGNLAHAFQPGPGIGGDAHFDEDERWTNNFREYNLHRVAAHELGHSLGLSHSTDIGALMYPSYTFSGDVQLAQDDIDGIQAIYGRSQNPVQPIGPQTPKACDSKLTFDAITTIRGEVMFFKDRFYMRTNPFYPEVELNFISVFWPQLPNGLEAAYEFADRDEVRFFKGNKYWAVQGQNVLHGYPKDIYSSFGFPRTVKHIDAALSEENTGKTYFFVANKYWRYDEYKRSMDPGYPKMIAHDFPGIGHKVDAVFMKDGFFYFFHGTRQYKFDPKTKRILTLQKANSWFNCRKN
Assay: Inhibition of Matrix metalloprotease-1 at 1 uM
measured_property: inhibition
Numeric answer plus unit only.

Examples from the recorded data:
# molecule_smiles, inhibition
rows = [
    ("C#Cc1scc(C(=O)NO)c1N(Cc1ccccc1)S(=O)(=O)c1ccc(OC)cc1", "49%"),
    ("COc1ccc(S(=O)(=O)N(Cc2ccccc2)c2cscc2C(=O)NO)cc1", "40%"),
    ("COc1ccc(S(=O)(=O)N(Cc2ccccc2)c2ccsc2C(=O)NO)cc1", "19%"),
    ("COc1ccc(S(=O)(=O)N(Cc2cccnc2)c2c(C(=O)NO)csc2Br)cc1", "50%"),
]

For the next question, use this molecule.
Q: Dear colleague, please send me the reported inhibition for `COc1ccc(S(=O)(=O)N(Cc2ccccc2)c2c(C(=O)NO)cnn2C)cc1` when you can.
A: 22%

###

Target sequence: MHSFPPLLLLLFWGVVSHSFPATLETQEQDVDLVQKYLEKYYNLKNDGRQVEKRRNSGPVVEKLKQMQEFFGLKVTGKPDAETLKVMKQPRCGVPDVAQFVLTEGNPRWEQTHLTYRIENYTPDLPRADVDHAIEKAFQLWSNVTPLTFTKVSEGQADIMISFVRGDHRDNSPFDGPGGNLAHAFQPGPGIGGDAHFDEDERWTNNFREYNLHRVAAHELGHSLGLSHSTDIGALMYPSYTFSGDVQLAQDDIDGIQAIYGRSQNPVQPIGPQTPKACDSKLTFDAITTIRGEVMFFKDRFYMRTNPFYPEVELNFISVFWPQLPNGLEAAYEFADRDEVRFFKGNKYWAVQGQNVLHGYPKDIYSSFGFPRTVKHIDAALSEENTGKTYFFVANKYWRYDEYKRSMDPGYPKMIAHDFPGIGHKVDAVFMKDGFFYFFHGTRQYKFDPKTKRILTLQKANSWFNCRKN
measured_property: pIC50
Reminder that pIC50 is minus the log10 of a molar concentration.

Q: Dear colleague, please send me the reported pIC50 for `COc1ccc(S(=O)(=O)N(Cc2ccccc2)[C@H]2CCCC[C@H]2C(=O)NO)cc1` when you can.
A: 6.44

###

Biological target: UniProt:P45452
measured_property: pIC50
Reminder that pIC50 is minus the log10 of a molar concentration.

Q: Quote UniProt:P45452 pIC50 for entry `COc1ccc(S(=O)(=O)N(Cc2ccccc2)c2c(C(=O)NO)csc2Br)cc1` .
A: 6.37
